Biological target: Gal-8N (galectin-8 N-terminal domain) (Homo sapiens, UniProt O00214)
Construct: made in house
Sequence (O00214 19-152 limits assumed): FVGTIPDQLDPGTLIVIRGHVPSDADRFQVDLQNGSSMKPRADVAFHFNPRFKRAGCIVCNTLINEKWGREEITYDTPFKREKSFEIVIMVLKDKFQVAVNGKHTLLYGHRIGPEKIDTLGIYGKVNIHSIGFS
Test: competitive fluorescence polarisation assay, Gal-8N
Format: binding
Details: competitive FP, mean ± SEM of n = 4 to 8, 20 °C; read-out: Kd Gal-8N
Cut-off 2 µM on Kd: below means Y, at or above means N.

| molecule | label |
| --- | --- |
| COC(=O)c1cccc(-n2cc(CO[C@@H]3[C@@H](OCc4nc5ccc(C(=O)O)cc5n4C)[C@@H](O)[C@@H](CO)O[C@@H]3Sc3ccc(Cl)c(Cl)c3)nn2)c1 [Compound 15b] | N |
| C#CCO[C@@H]1[C@@H](OCc2nc3ccc(C(=O)O)cc3n2C)[C@@H](O)[C@@H](CO)O[C@@H]1Sc1ccc(Cl)c(Cl)c1 | Y |
| Cn1c(CO[C@H]2[C@@H](O)[C@@H](CO)O[C@H](Sc3ccc(Cl)c(Cl)c3)[C@@H]2OCc2ccccc2)nc2ccc(C(=O)O)cc21 | Y |
| Cc1cccc(CO[C@@H]2[C@@H](OCc3nc4ccc(C(=O)O)cc4n3C)[C@@H](O)[C@@H](CO)O[C@@H]2Sc2ccc(Cl)c(Cl)c2)c1 | N |
| COC(=O)c1ccc(-n2cc(CO[C@@H]3[C@@H](OCc4nc5ccc(C(=O)O)cc5n4C)[C@@H](O)[C@@H](CO)O[C@@H]3Sc3ccc(Cl)c(Cl)c3)nn2)cc1 [Compound 15c] | N |
| Cn1c(CO[C@H]2[C@@H](O)[C@@H](CO)O[C@H](Sc3ccc(Cl)c(Cl)c3)[C@@H]2OCc2cn(-c3ccc(C(=O)O)cc3)nn2)nc2ccc(C(=O)O)cc21 [Compound 16c] | Y |
| Cc1ccc(CO[C@@H]2[C@@H](OCc3nc4ccc(C(=O)O)cc4n3C)[C@@H](O)[C@@H](CO)O[C@@H]2Sc2ccc(Cl)c(Cl)c2)cc1 | N |
| Cn1c(CO[C@H]2[C@@H](O)[C@@H](CO)O[C@H](Sc3ccc(Cl)c(Cl)c3)[C@@H]2OCc2cn(-c3cccc(C(=O)O)c3)nn2)nc2ccc(C(=O)O)cc21 [Compound 16b] | Y |
| Cn1c(CO[C@H]2[C@@H](O)[C@@H](CO)O[C@H](Sc3ccc(Cl)c(Cl)c3)[C@@H]2OCc2ccc(F)cc2)nc2ccc(C(=O)O)cc21 | Y |
| Cn1c(CO[C@H]2[C@@H](O)[C@@H](CO)O[C@H](Sc3ccc(Cl)c(Cl)c3)[C@@H]2OCC(=O)O)nc2ccc(C(=O)O)cc21 | Y |
| Cn1c(CO[C@H]2[C@@H](O)[C@@H](CO)O[C@H](Sc3ccc(Cl)c(Cl)c3)[C@@H]2OCC2CCC2)nc2ccc(C(=O)O)cc21 | Y |

----------
Form field: Gal-8C selectivity ratio Kd (Gal-8C)/Kd (Gal-8N) (one value per entry).
biological target: Gal-8C (Homo sapiens, UniProt O00214); construct: than to the C-terminal domain (Gal-8C); experiment: competitive fluorescence polarisation assay, Gal-8C; type: binding; settings: ratio of FP Kd values
assay_endpoint: Gal-8C selectivity ratio Kd (Gal-8C)/Kd (Gal-8N)

| molecule | test_result |
| --- | --- |
| COC(=O)c1ccc(-n2cc(CO[C@@H]3[C@@H](OCc4nc5ccc(C(=O)O)cc5n4C)[C@@H](O)[C@@H](CO)O[C@@H]3Sc3ccc(Cl)c(Cl)c3)nn2)cc1 [Compound 15c] | 85 |
| Cn1c(CO[C@H]2[C@@H](O)[C@@H](CO)O[C@H](Sc3ccc(Cl)c(Cl)c3)[C@@H]2OCC2CCCCC2)nc2ccc(C(=O)O)cc21 | 161 |
| Cn1c(CO[C@H]2[C@@H](O)[C@@H](CO)O[C@H](Sc3ccc(Cl)c(Cl)c3)[C@@H]2OCc2ccc(F)cc2)nc2ccc(C(=O)O)cc21 | 188 |
| Cn1c(CO[C@H]2[C@@H](O)[C@@H](CO)O[C@H](Sc3ccc(Cl)c(Cl)c3)[C@@H]2OCc2cn(-c3cccc(C(=O)O)c3)nn2)nc2ccc(C(=O)O)cc21 [Compound 16b] | 154 |
| Cn1c(CO[C@H]2[C@@H](O)[C@@H](CO)O[C@H](Sc3ccc(Cl)c(Cl)c3)[C@@H]2OCc2ccc(Cl)c(Cl)c2)nc2ccc(C(=O)O)cc21 | 134 |

----------
target: Gal-1 (Homo sapiens, UniProt P09382); construct: made in house; test: competitive fluorescence polarisation assay, Gal-1; type: binding; conditions: ratio of FP Kd values
Sequence (P09382 whole entry): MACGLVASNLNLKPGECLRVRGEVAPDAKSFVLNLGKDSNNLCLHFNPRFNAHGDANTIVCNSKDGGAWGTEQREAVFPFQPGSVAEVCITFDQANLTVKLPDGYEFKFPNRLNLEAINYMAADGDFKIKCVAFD
Form field: Gal-1 selectivity ratio Kd (Gal-1)/Kd (Gal-8N) (one value per entry).
assay_endpoint: Gal-1 selectivity ratio Kd (Gal-1)/Kd (Gal-8N)

| compound | test_result |
| --- | --- |
| Cn1c(CO[C@H]2[C@@H](O)[C@@H](CO)O[C@H](Sc3ccc(Cl)c(Cl)c3)[C@@H]2OCC2CCC2)nc2ccc(C(=O)O)cc21 | 10 |
| Cn1c(CO[C@H]2[C@@H](O)[C@@H](CO)O[C@H](Sc3ccc(Cl)c(Cl)c3)[C@@H]2OCc2cn(-c3cccc(C(=O)O)c3)nn2)nc2ccc(C(=O)O)cc21 [Compound 16b] | 57 |
| CO[C@@H]1[C@@H](OCc2nc3ccc(C(=O)O)cc3n2C)[C@@H](O)[C@@H](CO)O[C@@H]1Sc1ccc(Cl)c(Cl)c1 | 12.3 |
| Cn1c(CO[C@H]2[C@@H](O)[C@@H](CO)O[C@H](Sc3ccc(Cl)c(Cl)c3)[C@@H]2OCc2cn(-c3ccc(C(=O)O)cc3)nn2)nc2ccc(C(=O)O)cc21 [Compound 16c] | 41 |
| Cn1c(CO[C@H]2[C@@H](O)[C@@H](CO)O[C@H](Sc3ccc(Cl)c(Cl)c3)[C@@H]2OCc2ccc(Cl)c(Cl)c2)nc2ccc(C(=O)O)cc21 | 4.7 |
| COC(=O)c1ccc(-n2cc(CO[C@@H]3[C@@H](OCc4nc5ccc(C(=O)O)cc5n4C)[C@@H](O)[C@@H](CO)O[C@@H]3Sc3ccc(Cl)c(Cl)c3)nn2)cc1 [Compound 15c] | 24 |
| Cc1ccc(CO[C@@H]2[C@@H](OCc3nc4ccc(C(=O)O)cc4n3C)[C@@H](O)[C@@H](CO)O[C@@H]2Sc2ccc(Cl)c(Cl)c2)cc1 | 7.6 |
| Cn1c(CO[C@H]2[C@@H](O)[C@@H](CO)O[C@H](Sc3ccc(Cl)c(Cl)c3)[C@@H]2OCc2ccc(F)cc2)nc2ccc(C(=O)O)cc21 | 8.8 |
| Cn1c(CO[C@H]2[C@@H](O)[C@@H](CO)O[C@H](Sc3ccc(Cl)c(Cl)c3)[C@@H]2OCc2cccc(Cl)c2)nc2ccc(C(=O)O)cc21 | 8.3 |

----------
Form field: pKd (one value per entry).
biological target: Gal-8N (galectin-8 N-terminal domain) (Homo sapiens); construct: made in house; experiment: competitive fluorescence polarisation assay, Gal-8N; assay type: binding; conditions: ester compounds, competitive FP, highest tested concentration 1500 µM; read-out: Kd (Galectin-8N)
pKd: −log10 of the molar value.

| compound | target_of_assay | pKd |
| --- | --- | --- |
| COC(=O)c1ccc2nc(CO[C@H]3[C@@H](O)[C@@H](CO)O[C@H](Sc4ccc(Cl)c(Cl)c4)[C@@H]3OCc3cccc(Cl)c3)n(C)c2c1 [Compound 7f] | Gal-8N (galectin-8 N-terminal domain) (Homo sapiens) | < 2.82 |
| COC(=O)c1ccc2nc(CO[C@H]3[C@@H](O)[C@@H](CO)O[C@H](Sc4ccc(Cl)c(Cl)c4)[C@@H]3OCC3CC3)n(C)c2c1 [Compound 21] | Gal-8N (galectin-8 N-terminal domain) (Homo sapiens) | < 2.82 |
| COC(=O)c1ccc2nc(CO[C@H]3[C@@H](O)[C@@H](CO)O[C@H](Sc4ccc(Cl)c(Cl)c4)[C@@H]3OCc3ccc(Cl)c(Cl)c3)n(C)c2c1 [Compound 7e] | Gal-8N (galectin-8 N-terminal domain) (Homo sapiens) | < 2.82 |

----------
Form field: LE (one value per entry).
Molecular target: Gal-8N (Homo sapiens, UniProt O00214)
Construct: consisting of residues 4-158 was produced by Lund Protein Production Platform; made in house; host or cells: E. coli TUNER(DE3)
Sequence (O00214 4-158): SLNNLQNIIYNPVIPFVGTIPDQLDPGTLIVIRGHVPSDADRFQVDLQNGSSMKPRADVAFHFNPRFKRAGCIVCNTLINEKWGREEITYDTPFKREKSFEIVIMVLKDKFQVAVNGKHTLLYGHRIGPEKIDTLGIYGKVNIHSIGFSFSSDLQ
Assay: ligand efficiency (LE) and ligand-lipophilicity efficiency (LLE) calculations
Details: from Gal-8N Kd and number of non-hydrogen atoms

| molecule | LE |
| --- | --- |
| Cc1cccc(CO[C@@H]2[C@@H](OCc3nc4ccc(C(=O)O)cc4n3C)[C@@H](O)[C@@H](CO)O[C@@H]2Sc2ccc(Cl)c(Cl)c2)c1 [Compound 8b] | 0.185 (kcal/mol)/heavy atom |
| Cn1c(CO[C@H]2[C@@H](O)[C@@H](CO)O[C@H](Sc3ccc(Cl)c(Cl)c3)[C@@H]2OCC(=O)O)nc2ccc(C(=O)O)cc21 [Compound 29] | 0.227 (kcal/mol)/heavy atom |
| Cc1ccc(CO[C@@H]2[C@@H](OCc3nc4ccc(C(=O)O)cc4n3C)[C@@H](O)[C@@H](CO)O[C@@H]2Sc2ccc(Cl)c(Cl)c2)cc1 [Compound 8c] | 0.185 (kcal/mol)/heavy atom |
| Cn1c(CO[C@H]2[C@@H](O)[C@@H](CO)O[C@H](Sc3ccc(Cl)c(Cl)c3)[C@@H]2OCc2ccc(Cl)c(Cl)c2)nc2ccc(C(=O)O)cc21 [Compound 8e] | 0.171 (kcal/mol)/heavy atom |

Values from paper PMC11850616
